- System: P12-Ichikawa
- ASSAY_METHOD_TEXT: cell viability relative to DMSO control; higher = less cytotoxic
- CONDITION_NOTES: RPMI 5 mM glucose + 10% FBS; 48 h; 5.12 µM
PARAMETER_MEASURED: cell viability (%)

> print(dat)
                                   compound  unit.descriptor  endpoint.value
1      O=C1c2cccc(O)c2C(=O)c2c(O)cc(CO)cc21                %            92.1
2  C[C@@H]1CN(CC(=O)N2CC(C)(C)c3ncc(Cc4ccc(F)cc4)cc32)[C@@H](CN2CCOC[C@H]2C)CN1                %             125
3  CN(C(=O)c1ccc(F)cc1C(F)(F)F)C1CCN(c2nnc(-c3ccnn3C)c3ccccc23)CC1                %            75.3
4   N=C(N)c1ccc(OCCCCCOc2ccc(C(=N)N)cc2)cc1                %             117
5  CNC(=O)c1c(F)cccc1Nc1nc(Nc2cc3c(cc2OC)CCN3C(=O)CN(C)C)nc2[nH]ccc12                %             113
